B1: tRNA (parent)
chain: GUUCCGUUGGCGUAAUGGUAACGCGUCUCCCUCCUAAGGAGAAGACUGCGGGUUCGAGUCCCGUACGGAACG

Variants of: B1
Experiment: yeast fitness relative to wild type (ratio to wild type); higher = fitter; tRNA-Arg(CCU), competitive growth, 37 C, YPD
Fewer inactive variants are shown than the library holds.
Test readout: yeast fitness
Form field (numeric): enter value without unit.

Solved cases (3 shown):
Mutation annotation: A45C U59G
yeast fitness: 0.713

Mutation annotation: C11G A20C C24U A36C U47A
yeast fitness: 0.61

Mutation annotation: C27G U35A
yeast fitness: 0.636

Short answer for C34G C49U : yeast fitness was 0.708
